assay: soluble fraction after stress (log2 fold change); higher = more stays soluble; pooled small domains, quantitative proteomics; conditions: stress: pH 4
# reported soluble fraction (log2); entries follow

- biosequence: "HMDYINALTTAGITDAKVIVTAPFDVSGTAALTGIYKAYEDITGSSLNEIAKAVGVEELITTGNLA"
  soluble fraction (log2): 0.2
- biosequence: "HMRQHHMIISTKLGTPKEELAKLVSGFEDQGLRVSVITGTDYTVIGLVGDTTHLDEKRIRANPYVDNVQRV"
  soluble fraction (log2): 0.0502
- biosequence: "HMASMNPVWLEFPNIPWGSAGWRMGWGEDYMRRWAKWYISLAEVERQSYKSDWPEPQEWEGFYAFMEHGT"
  soluble fraction (log2): -1.23
- biosequence: "HMTLRDRDQALEELWGQLADVPMDSETERLLEPFMGWGVGVSRDEIWHWFDRRHSKGIGHLLYS"
  soluble fraction (log2): -1.67

---

test: soluble fraction after stress (log2 fold change); higher = more stays soluble; pooled small domains, quantitative proteomics; details: stress: pH 4

- biosequence: "HMLPLLEYLDPFTGKKTYTYLNPDTQHPIFTYYSYQDDKTGRTAYSYIDPLTGKAVNSDEPPMDILYD"
  soluble fraction (log2): -1.34
- biosequence: "HMTTARERVYKTLQQWIVNGTLLPEERLNDVELARYFSVSRTPVREALQMLAEQKLVKMVPSSGTFVA"
  soluble fraction (log2): -0.0644
- biosequence: "HMEILTRQLTHYLHLLPPAQQEVVRGVYLQDQTLQEIADRVQIPLGTVKSRLRLGLSKLREQIEQEHE"
  soluble fraction (log2): 0.291
- biosequence: "HMQLLDIGSAVRIIREPYFGRLGTVVELPPELMEIESGTHARVLKAKLDDGTVAVVPRANVEIIVE"
  soluble fraction (log2): -1.34
- biosequence: "HMDDVGYLRKRLQQALAQLSDDLRNTYTLFQIGKQSIKQIAAETGASESLVKVRIHRAKQKLQELLADLQ"
  soluble fraction (log2): -0.054
- biosequence: "HMEIMELPEYVVRSGSGLDAFREKWDLWDQGLMYDLKDKRAVFPIFIDGVMIDAVGRALAGAEPKWLRYTG"
  soluble fraction (log2): -0.554
- biosequence: "HMGYINLNVKVSPEWRDFWRSAYASVVAGYHQNKEHWNTIILDGSIPDKDIKRMIAESYDLVSD"
  soluble fraction (log2): -0.662
- biosequence: "HMTFPIDINRADTEQLTALPGIGEVLAKRIIAYREENGSFLSTDELKNVEGIGEKRLEAIVDLITIG"
  soluble fraction (log2): -0.935

---

Entries and their measured soluble fraction (log2) follow.
assay: soluble fraction after stress (log2 fold change); higher = more stays soluble; pooled small domains, quantitative proteomics; details: stress: pH 4
experimentalEndpoint: soluble fraction (log2)

- biosequence: "HMSTEAFLGTEGEVVLPLLPDGLGKIRLHVADQDVELPARTGGEPIQIRERVVVVRFRDGIAEVEPAP"
  observedMeasurement: -0.525
- biosequence: "HMYTPDYLSDLMVRMAHHSTAIEGNTLTQGETKSVLVDGYIPRAMDMRELNEVLNYKAFMTFLVE"
  observedMeasurement: -0.35
- biosequence: "HMAAGADEATTVPNVSGDTLNQAIKSLKAEGLGYMLSGAGARVRDQMPEPGAEMTKGSVVMLYMDGDAEVD"
  observedMeasurement: 0.399
- biosequence: "HMKEETYHYTVRYVTDGGDILASYEGKATKDSVFFPEVKTFDGYTAVRGEEPMFHLVSDHAVFQIVYQKNG"
  observedMeasurement: 0.204

---

# key: entry, value: soluble fraction (log2)
test: soluble fraction after stress (log2 fold change); higher = more stays soluble; pooled small domains, quantitative proteomics; details: stress: pH 4

- biosequence: "HMLPIMDRLITAGISINTAKKWVDKFGDKRIKQNLAYSLAKQKEGKVKTNFVGYLAKAIEEDWGSGWE"
  soluble fraction (log2): "≥ 0.43"
- biosequence: "HMSFTSQSVLIEIVRGTTQLTPLAAAVGANKREVVLAVHRLKQRGLVVSAGLGQYAATEAGRAFLTAGREV"
  soluble fraction (log2): "≥ 0.43"
- biosequence: "HMFLPFFDNLRKAGVPVSLREFLGFLEGMKAGLATYDIDAFYFLARTTMVKDERNLDKFDRAFSATFKG"
  soluble fraction (log2): -0.935
- biosequence: "HMHHSGLRQSQFDEISRQIRSLLEMESLSLQELKTRMEDVPEEQLTKVVSYLLSEEIIRQENGRLQ"
  soluble fraction (log2): -1.35
- biosequence: "HMQQEAVNLVQSRGQQAIEPVHIMQGVMKVGENVTNFIFQKLGMNGQQVALVVDKQIDSLPKVSGGEPYL"
  soluble fraction (log2): -0.0637
- biosequence: "HMSNIQLVENLYRLRKAHHYTQQEISDLLNISRQAYSNYETSKRTPDLDSLMRLADIYGVSLDQLVNHP"
  soluble fraction (log2): -0.347
- biosequence: "HMSKQLGFKIKTARRKLNISQGDLSKKLEISPSYLNLIESGKRKVSTDLLMKASEILNLDLKKL"
  soluble fraction (log2): "≥ 0.43"
- biosequence: "HMADRVFGHIPGVAVGSIFPDRRSLSQTGVHRPTQAGISGNKTDGADSIVVSGGYRDDRDYGDLIIYTG"
  soluble fraction (log2): -0.746
- biosequence: "HMRQKTTFFATESFELPNGEKVEEGQIFRLNDGAFNIAEQQGITRFLTSEANYGRMIAANAEVEKAKLDA"
  soluble fraction (log2): -1.05
- biosequence: "HMGQKNEDESLAKFYVHKKGNQYGPYSLIQIREYLKNNSFSLDDLASWDGQSWKKISQIPNLN"
  soluble fraction (log2): 0.182
- biosequence: "HMQINLSEWVLAAREYAGPEMTQEKLAEHLGRTKANVSAMENGRSKPSFEQMMEIHRVTGYPLPYQ"
  soluble fraction (log2): -0.0156
- biosequence: "HMASENISYSQFINQVKNSMVESVSIEADGKTISGKYKSGSSFVTYGLNDPKLVDDLLSNNVEIL"
  soluble fraction (log2): 0.0122
- biosequence: "HMSLEDYVIIKNKTVKVYETEFDGAPVVTSSSVGQKLILVEYNDNFAKILYRAKDGLDYVGYIKRKDVYVR"
  soluble fraction (log2): -1.04
- biosequence: "HMELLTYREMDVLNLLDQRLTNKEIAHALGISTETVRQHTVNLFRKLNVDNRRQAIVVARSLGYIGTPT"
  soluble fraction (log2): -0.894
- biosequence: "HMDASKVKIEDLGLSTRTENALVAASIRTAGGLARKSEMDLLSTDGLGEKGITEIKKALSDLGLELK"
  soluble fraction (log2): 0.246
- biosequence: "HMFWRKIDFYGLNLSTYRNIINIGSDYNYIYLDLGNIYKILNPITGKIIEEQDLVMNIDNINWSS"
  soluble fraction (log2): -0.105
- biosequence: "HMSPRADRSVNLDVGETVQIDDWGADGTAQIRYRGAPWTAVLRPGHTPHPGPHRVIELVGSRLLVEP"
  soluble fraction (log2): -0.746

---

assay: soluble fraction after stress (log2 fold change); higher = more stays soluble; pooled small domains, quantitative proteomics; settings: stress: pH 4
Grouping key: soluble fraction (log2). Bins: lower segment = under -0.7, middle segment = from -0.7 up to -0.06, upper segment = -0.06 and over

- biosequence: "HMNDPIESLTPREREVLTLMAEGRTNAAIAAQLVVTEGAVEKHTQHIFAKLGLLPDSAVHRRVKAVLALLS"
  category: "middle segment"
- biosequence: "HMEDIASESVKRVIRKIIDDEDKKSPLSDQAIVEILAKGEGIVIARRTVAKYREMMGILPSSKRKKH"
  category: "upper segment"
- biosequence: "HMFDMLGDQIKKYRKEKKMSQEELAIPLNVVRQTVSKWENNLSVPDAELLIRLAEVLEISVAELLGT"
  category: "lower segment"
- biosequence: "HMLLLHINQMGVTEFSQLELNHVRSWLANLQIKGAARSSITRRVVSVRAFTYWGAKNGWLASDIGRDLVAP"
  category: "middle segment"
- biosequence: "HMKIEEIAYSTFISMLDKGEVSKVELKDNLIYIETKADDKTIYTTGRMEDPDLTNRLIEAGVDFTEIE"
  category: "lower segment"
- biosequence: "HMHSPTFYVHVVGQVKVPGVYELEVGSRLFDAVIAAGGFKDDADQASVNLARPLSDGEQIVVLKLGDQ"
  category: "lower segment"
- biosequence: "HMDHAVINSEEVTIKDLSEKIGVSAAEIIKALFTEGIIKTINDKIEYEYAQYVAGMFGVELTLKL"
  category: "upper segment"
- biosequence: "HMGYVQLTAREKEVLQGLVDGASYKMIAAKLDIRFGTVHTHVKNIYEKLHVNSASEAVVKAIRQRL"
  category: "lower segment"
- biosequence: "HMLAEEAFNKQAATAGYVYRDGSYHPAASVAQYDAMPRNYRTNTMAQELSRSQVESQLQQSQ"
  category: "middle segment"
- biosequence: "HMQNSMTTTPDVVGKTGTFAEQMLKAANLNVQFAGDSSGKVVAQDVEAGTSAAYGTIITLTMDS"
  category: "upper segment"
- biosequence: "HMTEEEEFEKGFEILVNLSHFNRFSVYKEDEYVIVRIADYDFNEYFKVKKSDVGRIAEFLNENIT"
  category: "lower segment"
- biosequence: "HMAEQVLHQKLAARRKELNSLVAQVARVRGIPHSHVHSGLRREAGGPPLAQATTDQVEARISLARKWLRA"
  category: "upper segment"
- biosequence: "HMAADWTAIKLAYVNGGMSMRELAQRFHVGAAGLMKRAAKEGWEAERQQNSAKVSNAAQMLIN"
  category: "upper segment"
- biosequence: "HMSADISIGYNIPKGSVTVSAGGRTLQEGIDYDINYDLGTIKITNQAILNAGLPVQVNFENNAS"
  category: "middle segment"
- biosequence: "HMESPSGGHRIALAFDQGTARAVDATYARLTGAGYEGRTKPWDAPWGQRYATVFDPDGNSVDLFAALE"
  category: "middle segment"
- biosequence: "HMQPVLSDAEVNDLKNIAGGERGYNQLMDWAGNNLTAQDAKSYDDVLATGNKAAISFAIKALMGQYEDAN"
  category: "middle segment"
- biosequence: "HMGPKALLKIPGLQEVDAELLFKEGYKSISAVASADPEMLKAIPGVDEQKVTEWVTGAEQILSQQVNKGA"
  category: "upper segment"
- biosequence: "HMPVSTLLGDNLRRLRTAKGYTQEAVADAARISVAAYRNYETGRAIPKVNTLLAIARALGVSLNDLVTE"
  category: "upper segment"
- biosequence: "HMSLRVIEIFGTPQQMSARISLMDGSVTDVKVGQSIPGTSYKVASITGNGVWIQNGTAVSYTHL"
  category: "upper segment"
- biosequence: "HMTSPQGIERFLASGVIEGVGKAMAARIVAVFGGQTLEIIEKQPHRLREVRGIGVKTAEKIHASYQEKA"
  category: "middle segment"
- biosequence: "HMQTTVHLSPEEMVIMNALKQESPIDLPILRAQVEMSNKLWDTSMKNLSKLGQLKVEKIGEQVSVSLI"
  category: "upper segment"
- biosequence: "HMGHLTWTVTGIGHERRARTVAEQMSSVFGVLEARASSAGTVYLEFEREKIDEGGLEASLKRMGVTRVV"
  category: "lower segment"
- biosequence: "HMEKIRIQKYLSERGVMSRRAADSALAEGRIAVNGVTARPGDKIDPSSDTLTIDGRIVTTGTAP"
  category: "upper segment"
- biosequence: "HMTMRFVVADGQNFGSIAQSKALEAVKKGNTEFNYKDVDYTVDIQSDDFYVVYQGRDIMGYASR"
  category: "lower segment"
- biosequence: "HMTRNEFLTALRGRLSALPKEEQDAALKYYEEYFDEAESEEDAARQLGSPDSIAEKILADYA"
  category: "upper segment"
- biosequence: "HMGTPLYLLLAAEVRDRIATEQLAPHTAVPSERELAELHGVSRMTARQALALLESEGLVYRNPPRGTFVAE"
  category: "lower segment"
- biosequence: "HMNILNFSENIIKLRHKKGITQEELADFVGVTKASVSKWETKQSLPDIMLLPRLAAYFDVTVDELLGYEP"
  category: "middle segment"
- biosequence: "HMLGERIKQIRKQKKMTQTDVATGIITKSMLSMIENGKATPSLPALQAIARRLQVTVEELML"
  category: "upper segment"
- biosequence: "HMTLGPKQMGEAIIKNLKEKTGKSLEEWSQRILIHELTDKKEIIDFLKNDNGLGHFQALKIFEHLNGK"
  category: "middle segment"
- biosequence: "HMKEPGFAPPVRALAAAPITVLAQVAGTNPGEIRARLRAAGYPVASDQQSVQSLVGGDLKAQIGVLNRILA"
  category: "upper segment"
- biosequence: "HMYAGTWISESGQWKYRNDDGSFAKGWFQDLDSRWYYFDANGHMLSDTLTPDGYRLGEDGAWVND"
  category: "lower segment"
